test system: SR; test: NCI tumour cell line growth inhibition, 48 h
The source made the active and inactive calls. Cut-off read from the data, not from the text of the source: active = GI50 up to about 1.1 µM and inactive = higher.
# GI50 per record follows
metric.name: GI50

- Cc1cc(S(N)(=O)=O)c(S/C(=N\Nc2ccc([N+](=O)[O-])cc2)c2ccc(Cl)cc2)cc1Cl: 2.94 µM (inactive)
- CCCCCCCCCCCCCCCCCc1nnc(N)o1: > 100 µM (inactive)
- O=C1CCN(CCC(F)(F)C(F)(F)C(F)(F)C(F)(F)C(F)(F)C(F)(F)F)C(=S)N1CCC(F)(F)C(F)(F)C(F)(F)C(F)(F)C(F)(F)C(F)(F)F: > 100 µM (inactive)
- COC[C@@H](/N=C/N1CCc2cc(OC)c(OC)cc2C1)C(C)(C)C: > 100 µM (inactive)
- CC(=O)OC1CC2C(C)(C)OC(=O)CC(OC(C)=O)[C@]2(C)C2CCC3(C)C(=CCC3c3ccoc3)[C@]12C (stereo not given in full): 8.15 µM (inactive)
- Cc1ccc(O)c(/N=N\c2c(O)cc(S(=O)(=O)O)c3ccccc23)c1: 17.8 µM (inactive)
- Cc1ccc(/N=C2\SC(=S)N(CCC[N+](C)(C)C)\C2=N/c2ccc(C)cc2)cc1: 7.03 µM (inactive)
- O=C1CC(Cl)c2c(Cl)sc(Cl)c21 (stereo not given): 1.41 µM (inactive)
- CCc1cc2c(Nc3ccccc3)c3c(nc2s1)CCCC3: 5.3 µM (inactive)
- COc1ccc(/C=N/N=C(\N)NO)cc1OC: 24.9 µM (inactive)

----------
system: A498; experiment: NCI tumour cell line growth inhibition, 48 h
Active and inactive are the calls of the source. No stated cut-off is given here; in the data, active = GI50 up to about 1.1 µM and inactive = higher.
metric.name: GI50

* O=S(=O)(N/C(=N\O)Nc1ccc(Cl)cc1)c1ccccc1 | 6.67 µM (inactive)
* CC(C)Oc1cc2c(cc1O)CC[C@@H]1[C@@H]2CC[C@]2(C)[C@@H](O)CC[C@@H]12 | 6.65 µM (inactive)
* CC(=O)C(/N=N\C1CCC(S(=O)(=O)NB2N=CS2)CC1)C(=O)Nc1ccccc1C (stereo unspecified) | 16.7 µM (inactive)
* CC1(C)Cc2c(cnn2-c2ccc(C(F)(F)F)cc2)-c2[nH]c(-c3ccc(O)cc3)nc21 | 20.4 µM (inactive)
* CC(=O)OCC(Br)C1(C)CCC(C(C)(C)Br)O1 (stereo unspecified) | > 100 µM (inactive)
* CN1C(=O)C(Cl)(C(Cl)(Cl)S(=O)(=O)O)C(=O)c2ccccc21.c1ccncc1 (stereo unspecified) | > 100 µM (inactive)
* C1CNOCCCONCCCNOCCCONC1 | 42.5 µM (inactive)
* Cc1ccc(/N=C2\SC(=S)N(CCC[N+](C)(C)C)\C2=N/c2ccc(C)cc2)cc1 | 17.2 µM (inactive)
* CC(C)CCC[C@@H](C)[C@H]1CC[C@H]2[C@@H]3CC[C@H]4C[C@@H](CCC=C(c5cc(Cl)c(O)c(C(=O)O)c5)c5cc(Cl)c(O)c(C(=O)O)c5)CC[C@]4(C)[C@H]3CC[C@]12C | > 100 µM (inactive)
* CCc1cc2c(Nc3ccccc3)c3c(nc2s1)CCCC3 | 25.8 µM (inactive)
* CC(=O)OCC12C(OC(C)=O)C[C@@H](C)C3(CC(c4ccoc4)OC3=O)C1CCC(O)C21CO1 (stereo partly specified) | > 100 µM (inactive)
* COC(=O)C12CC3CC(C1)CC(C(=O)OC)(C3)C2 | > 100 µM (inactive)
* O=C(O)CC(CC(=O)O)n1cccc1 | > 100 µM (inactive)
* S=C1c2ccccc2N=C(NC2CCCC2)C2CSCN12 (stereo unspecified) | 88.9 µM (inactive)
* CCc1nc(N)nc(N)c1-c1ccc(Cl)cc1 | 13.3 µM (inactive)
* Cc1c(N2CCN(C)CC2)nc2ccc(Cl)cc2c1-c1ccccc1 | 12.2 µM (inactive)
* CSc1nnc(SCc2nn3c(=O)cc(C)nc3s2)s1 | > 100 µM (inactive)
* O=C(/C=C/c1ccco1)c1cccc(C(=O)/C=C/c2ccco2)n1 | > 72.1 µM (inactive)
* O=C1[C@@H]2C3SC(c4ccccc43)[C@@H]2C(=O)N1c1ccccc1 | > 100 µM (inactive)
* CC1=NN(c2nc(N)nc(C(C)Cl)n2)C(C)(C)C1 (stereo unspecified) | > 100 µM (inactive)
* COc1ccc(/C=C2/NC(=S)N=C2Cl)cc1 | > 100 µM (inactive)

----------
GI50 listing for selected compounds.
system: SR; test: NCI tumour cell line growth inhibition, 48 h
Calls of active or inactive are those of the source. No stated cut-off is given here; in the data, active = GI50 up to about 1.1 µM and inactive = higher.
metric.name: GI50

* OCC1OC(OCC(O)C(O)C(O)C(/C=N/Nc2ccccc2)=N/Nc2ccccc2)C(O)C(O)C1O (stereo not drawn) | > 100 µM (inactive)
* COC(=O)C(=O)C(C(=O)C(=O)Nc1ccccc1C(N)=O)c1nc2ccc([N+](=O)[O-])cc2nc1O (stereo not drawn) | > 100 µM (inactive)
* C[C@@H]1CC[C@H]2C(C)(C)[C@H]3C[C@@]12CC[C@@]3(C)O | 18.7 µM (inactive)
* Cc1ccc(C(=O)Nc2ccc(S(=O)(=O)O)c3cc(S(=O)(=O)O)cc(S(=O)(=O)O)c23)cc1NC(=O)c1cccc(NC(=O)Nc2cccc(C(=O)Nc3cc(C(=O)Nc4ccc(S(=O)(=O)O)c5cc(S(=O)(=O)O)cc(S(=O)(=O)O)c45)ccc3C)c2)c1 | 69.3 µM (inactive)
* O=NN(CCCl)C(=O)NC1CCC(=O)NC1=O (stereo not drawn) | 25.4 µM (inactive)
* O=C(Nc1nc2ccc([N+](=O)[O-])cc2[n+]([O-])n1)C(F)(F)F | 29.5 µM (inactive)
* Nc1nn2c(=O)c3ccccc3nc2s1 | 20.5 µM (inactive)
* Nc1nc(Cl)cc(NCC2(CO)CC(CCc3ccccc3)C2)n1 (stereo not drawn) | 1.31 µM (inactive)

----------
test system: NCI-H23; experiment: NCI tumour cell line growth inhibition, 48 h
Active and inactive are the calls of the source. Cut-off read from the data, not from the text of the source: active = GI50 up to about 1.1 µM and inactive = higher.
Labels: active, inactive

• O=C1CC(=O)NC(NN2C(=O)CSC2c2ccc(Cl)c(Cl)c2)=N1 (centres undefined) = inactive
• O=C1CSC2(CC(/C=C/c3cccc([N+](=O)[O-])c3)=NN2c2cccc(S(=O)(=O)O)c2)N1c1nc2ccccc2s1 (centres undefined) = inactive
• COc1ccc(OC)c2c1C(=O)C(Cl)=C(N1CCN(CCOCCO)CC1)C2=O = inactive
• Cc1ccc(/N=C2\SC(=S)N(CCC[N+](C)(C)C)\C2=N/c2ccc(C)cc2)cc1 = inactive
• CCOC(=O)C(C(=O)OCC)=C1NC2(c3ccccc3Nc3ccc(C)cc32)C(C#N)S1 (centres undefined) = inactive
• C=C(C)/C=C/C(O)[C@](C)(O)[C@H]1[C@H](O)C[C@@]2(C)[C@@H]3CCc4c(cc(OC5OC(CO)C(O)C(O)C5O)c(O)c4C)C3(C)C(=O)C[C@]12C (some centres undefined) = inactive
• COc1ccc(/C=N/N=C(\N)NO)cc1OC = inactive
• Cc1ccc2[nH]c3c(c2c1)C1CCC(C(C)(C)C)CC1C1C(=O)N(c2ccc4c(c2)OCO4)C(=O)C31 (centres undefined) = inactive
• CC1(C)Cc2c(cnn2-c2ccc(C(F)(F)F)cc2)-c2[nH]c(-c3ccc(O)cc3)nc21 = inactive
• O=C1C(NCCc2ccc(O)c(O)c2)=CC(=O)c2ncccc21 = inactive
• COC1=CC2C(c3cc4ccccc4n3S(=O)(=O)c3ccccc3)CC1CN2C(=O)OCc1ccccc1 (centres undefined) = inactive
• CCOC(=O)c1sc2c(c1OC(=O)c1ccco1)c(=O)n(-c1ccccc1)c(=S)n2-c1ccccc1 = inactive
• COC(=O)/C=C(\C)CC/C=C(\C)CCC(O)C(C)(C)O (centres undefined) = inactive
• COc1ccc(-c2cc(=O)c3c(O)c(OC)c(O)c(OC)c3o2)cc1OC = inactive
• Cc1ccccc1C1=C/C(=C(\SS/C(C(=O)c2ccc(OCC(=O)O)c(Cl)c2Cl)=C2\C=C(c3ccccc3C)SS2)C(=O)c2ccc(OCC(=O)O)c(Cl)c2Cl)SS1 = inactive
• COc1ccc(S(=O)(=O)Nc2ccc(-c3csc(N4C(=O)/C(=C/c5ccccc5[N+](=O)[O-])N=C4c4ccccc4)n3)cc2)cc1Cl = inactive
• COC(=O)/C=C1/CCC2[C@@H](C(=O)CC3[C@]2(C)CCC[C@@]3(C)C(=O)OC)C1C (some centres undefined) = inactive
• N#CSC#CCCC#CSC#N = inactive
• O=C(N/N=C/c1ccccc1O)c1cccc([N+](=O)[O-])c1 = inactive
• COc1nc(N)c(C#N)c(C#N)c1C#N = inactive
• S=C(N/N=C\C(=N/NC(=S)N1CCCCC1)c1ccccc1)N1CCCCC1 = inactive
• O=C1C(Cl)=C(Nc2ccc(OC(F)(F)F)cc2)C(=O)c2c(O)ccc(O)c21 = active
• O=C1Nc2ccccc2/C1=C\c1c(Cl)nc2n1CCS2 = inactive
• COC(=O)C1=C(c2ccc(OC)c(OC)c2)OC(c2ccc(OC)c(OC)c2)C1 (centres undefined) = inactive
• CN1C(=O)C2C=C3CCCCC3=CC2N(C)C1=O (centres undefined) = inactive
• CCCN1C(=O)CNC(=O)c2[nH]cnc21 = inactive
• COc1cc(CC2c3cc(OC)c(OC)cc3CCN2C)c(Oc2cc3c(cc2OC)-c2c(O)c(OC)cc4c2C(C3)N(C)CC4)cc1OC (centres undefined) = inactive
• C=CCOC1(CC=C)C(=O)OC2C(O)COC21O (centres undefined) = inactive
• Cc1ccc2nc3cc(C)c(=O)cc-3sc2c1 = inactive
• Cc1c(NC(=O)CSC(=S)N2CCN(Cc3ccccc3)CC2)c(=O)n(-c2ccccc2)n1C = inactive
• CCOC(=O)c1nnn(CCCCO)c1C(=O)OCC = inactive
• CC1OC(NCCNCCNC2OC(C)C(O)C(O)C2O)C(O)C(O)C1O (centres undefined) = inactive
• CCOC(=O)/C=C/CCC(C)(C)COC(C)=O = inactive
• O=C1NC(c2ccccc2)(c2ccccc2)C(=O)N1CCCCCCN1C(=O)NC(c2ccccc2)(c2ccccc2)C1=O = inactive
• CN(C)c1ccc(/C=C2\N=C(NNc3ccccc3)NC2=O)cc1 = inactive
• O=C(/C=C/c1ccco1)c1cccc(C(=O)/C=C/c2ccco2)n1 = inactive
• O=[N+]([O-])c1ccc2c(c1)C(N1CCN(CCO)CC1)Cc1ccc(F)cc1S2 (centres undefined) = inactive
• Cc1c(/C=N/NC(=O)c2ccccc2O)c(=O)n(-c2ccccc2)n1C = inactive
• Cc1ccc2c(c1)C(C(=O)N[C@@H]1C(=O)N3[C@@H]1SC(C)(C)[C@@H]3C(=O)O)OCCC2 (some centres undefined) = inactive

Sourced from ChEMBL document CHEMBL1201862
